Biological target: CXCR2 (Homo sapiens, UniProt P25025)
Construct: expressed in transfected cells
Sequence (P25025 1-360): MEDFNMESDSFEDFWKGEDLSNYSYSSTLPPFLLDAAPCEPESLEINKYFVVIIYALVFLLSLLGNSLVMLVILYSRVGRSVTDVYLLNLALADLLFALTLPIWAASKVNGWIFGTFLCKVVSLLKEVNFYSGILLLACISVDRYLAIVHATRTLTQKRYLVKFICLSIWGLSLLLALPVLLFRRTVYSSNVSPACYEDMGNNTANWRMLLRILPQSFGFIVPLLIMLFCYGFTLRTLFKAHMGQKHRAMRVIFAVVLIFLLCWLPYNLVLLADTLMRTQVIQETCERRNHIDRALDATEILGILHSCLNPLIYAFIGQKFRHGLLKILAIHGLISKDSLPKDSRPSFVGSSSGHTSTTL
Assay: Figure S2a opioid peptide screen on chemokine receptors
Format: cell-based
Set-up: dose or concentration left out as unconfirmed
Conditions: replicate 1, read-out: CXCR2 activity, ctrl+ = 100
Starred links: 1 amine or outer side, 2 acyl side, 3 side chain; linkers in the order of their positions; H or OH if unused. Non-standard residues stand in square brackets, D forms with d. Residues, ends and D or L forms follow the SMILES beside them. X1 = N[C@@H](Cc1ccccc1)CN(CC(=O)[*:2])[*:1]
Would you kindly list activation for each of these compounds?
Please give a number only; it is taken to be in %.

INPUT: Write down the reported activation of "CC[C@H](C)[C@H](NC(=O)[C@H](CCCNC(=N)N)NC(=O)[C@H](CCCNC(=N)N)NC(=O)[C@H](CC(C)C)NC(=O)[C@H](Cc1ccccc1)NC(=O)CNC(=O)CNC(=O)[C@@H](N)Cc1ccc(O)cc1)C(=O)N[C@@H](CCCNC(=N)N)C(=O)N1CCC[C@H]1C(=O)N[C@@H](CCCCN)C(=O)N[C@@H](CC(C)C)C(=O)N[C@@H](CCCCN)C(=O)O" , test system: CXCR2 (Homo sapiens, UniProt P25025).
OUTPUT: -2.31

INPUT: For the record C[C@H](NC(=O)CNC(=O)[C@@H](NC(=O)[C@H](Cc1ccccc1)NC(=O)CNC(=O)CNC[C@@H](N)Cc1ccccc1)[C@@H](C)O)C(=O)N[C@@H](CCCNC(=N)N)C(=O)N[C@@H](CCCCN)C(=O)N[C@@H](CO)C(=O)N[C@@H](C)C(=O)N[C@@H](CCCNC(=N)N)C(=O)N[C@@H](CCCCN)C(N)=O [FG Nociceptin 1-13] (H-[X1]GFTGARKSARK-NH2) , what value of activation is listed for CXCR2 (Homo sapiens, UniProt P25025)?
OUTPUT: -5.21

INPUT: Lab request: please report activation under test system CXCR2 (Homo sapiens, UniProt P25025) for "CC(C)C[C@H](NC(=O)[C@H](Cc1ccccc1)NC(=O)CNC(=O)CNC(=O)[C@@H](N)Cc1ccc(O)cc1)C(=O)N[C@@H](CCCN=C(N)N)C(=O)N[C@@H](CCCN=C(N)N)C(=O)N[C@@H](CCC(N)=O)C(=O)N[C@@H](Cc1ccccc1)C(=O)N[C@@H](CCCCN)C(=O)N[C@H](C(=O)N[C@H](C(=O)N[C@H](C(=O)O)[C@@H](C)O)C(C)C)C(C)C"
OUTPUT: 0.415

INPUT: Field: activation (CXCR2 (Homo sapiens, UniProt P25025)). Entry: "CC(C)C[C@H](NC(=O)[C@H](CCCCN)NC(=O)[C@H](CCCN=C(N)N)NC(=O)[C@H](C)NC(=O)[C@H](CO)NC(=O)[C@H](CCCCN)NC(=O)[C@H](CCCN=C(N)N)NC(=O)[C@H](C)NC(=O)CNC(=O)[C@@H](NC(=O)[C@H](Cc1ccccc1)NC(=O)CNC(=O)CNC(=O)[C@@H](N)Cc1ccccc1)[C@@H](C)O)C(=O)N[C@@H](C)C(=O)N[C@@H](CC(N)=O)C(=O)N[C@@H](CCC(N)=O)C(=O)O"
OUTPUT: -2.08

INPUT: Give recorded activation with CXCR2 (Homo sapiens, UniProt P25025) for the following compound: "C[C@H](NC(=O)CNC(=O)[C@@H](NC(=O)[C@H](Cc1ccccc1)NC(=O)CNC(=O)CNC(=O)[C@@H](N)Cc1ccccc1)[C@@H](C)O)C(=O)N[C@@H](CCCNC(=N)N)C(=O)N[C@@H](CCCCN)C(=O)N[C@@H](CO)C(=O)N[C@@H](C)C(=O)N[C@@H](CCCNC(=N)N)C(=O)N[C@@H](CCCCN)C(N)=O"
OUTPUT: -8.55

INPUT: Test system CXCR2 (Homo sapiens, UniProt P25025); read-out activation; what value for NC(=O)[C@H](Cc1ccccc1)NC(=O)[C@H](Cc1c[nH]c2ccccc12)NC(=O)[C@@H]1CCCN1C(=O)[C@@H](N)Cc1ccc(O)cc1 [Endomorphin-1] ?
OUTPUT: 0.676

INPUT: Quick check: activation on CXCR2 (Homo sapiens, UniProt P25025), item "CC[C@H](C)[C@H](NC(=O)[C@H](CCCNC(=N)N)NC(=O)[C@H](CCCNC(=N)N)NC(=O)[C@H](CC(C)C)NC(=O)[C@H](Cc1ccccc1)NC(=O)CNC(=O)CNC(=O)[C@@H](N)Cc1ccc(O)cc1)C(=O)N[C@@H](CCCNC(=N)N)C(=O)N1CCC[C@H]1C(=O)N[C@@H](CCCCN)C(=O)N[C@@H](CC(C)C)C(=O)N[C@@H](CCCCN)C(=O)N[C@@H](Cc1c[nH]c2ccccc12)C(=O)N[C@@H](CC(=O)O)C(=O)N[C@@H](CC(N)=O)C(=O)N[C@@H](CCC(N)=O)C(=O)O" ?
OUTPUT: -9.63

INPUT: What measured activation is associated with "CC[C@H](C)[C@H](NC(=O)[C@H](CCCNC(=N)N)NC(=O)[C@H](CCCNC(=N)N)NC(=O)[C@H](CC(C)C)NC(=O)[C@H](Cc1ccccc1)NC(=O)CNC(=O)CN)C(=O)N[C@@H](CCCNC(=N)N)C(=O)N1CCC[C@H]1C(=O)N[C@@H](CCCCN)C(=O)N[C@@H](CC(C)C)C(=O)N[C@@H](CCCCN)C(=O)N[C@@H](Cc1c[nH]c2ccccc12)C(=O)N[C@@H](CC(=O)O)C(=O)N[C@@H](CC(N)=O)C(=O)N[C@@H](CCC(N)=O)C(=O)O" on CXCR2 (Homo sapiens, UniProt P25025)?
OUTPUT: -7.18

INPUT: Tell me reported activation for "CSCC[C@H](NC(=O)[C@H](Cc1ccccc1)NC(=O)CNC(=O)CNC(=O)[C@@H](N)Cc1ccc(O)cc1)C(=O)N[C@@H](CCCNC(=N)N)C(=O)N[C@@H](CCCNC(=N)N)C(=O)N[C@H](C(N)=O)C(C)C" , tested with CXCR2 (Homo sapiens, UniProt P25025).
OUTPUT: 3.42
